Assay: Toxicity liver stage against HepG2, at 10uM
Assay type: cell-based
Design: test concentration 10 uM, cell line HepG2-A16-CD81EGFP
Conditions: human, HepG2-A16-CD81EGFP cells; read-out: INHIBITION

>  <Compound>
COc1cccc(OC)c1OCCn1c(C)c(C)oc1=O

>  <cytotoxicity at 10 µM [%]>
9.61

$$$$
>  <Compound>
CC(C)c1ccc(OCCC(=O)N2CCC(C(N)=O)CC2)cc1

>  <cytotoxicity at 10 µM [%]>
-11.5

$$$$
>  <Compound>
CCN1CC(COC(C)(C)C)Oc2ccncc2S1(=O)=O (stereo not given)

>  <cytotoxicity at 10 µM [%]>
-3.43

$$$$
>  <Compound>
Cn1ccc2c(C(=O)N3CC[C@@]4(O)CCCC[C@H]4C3)cccc21

>  <cytotoxicity at 10 µM [%]>
-42.9

$$$$
>  <Compound>
CCNC(=O)Nc1cccc(F)c1C(=O)NC1CCCC1

>  <cytotoxicity at 10 µM [%]>
5.69

$$$$
>  <Compound>
CN1CCC(N(Cc2ccncc2)Cc2nc3c(s2)CCCC3)CC1

>  <cytotoxicity at 10 µM [%]>
-2.56

$$$$
>  <Compound>
Cc1nn(C)c(C)c1CN(C)S(=O)(=O)c1c(C)n[nH]c1C

>  <cytotoxicity at 10 µM [%]>
-2.32

$$$$
>  <Compound>
Cc1nc(C)n(CC2CCCN2Cc2cc(-c3cccs3)on2)n1 (stereo not given)

>  <cytotoxicity at 10 µM [%]>
-0.367

$$$$
>  <Compound>
CN(Cc1ccccc1)CC(C)(C)NC(=O)c1cnccn1

>  <cytotoxicity at 10 µM [%]>
6.95

$$$$
>  <Compound>
CCOCc1nc2c(c(NC(CC)c3ccnn3C)n1)CCNCC2 (stereo not given)

>  <cytotoxicity at 10 µM [%]>
-5.53

$$$$
>  <Compound>
COc1ccc(-c2cc(C3CCCCCN3S(=O)(=O)N(C)C)on2)cc1 (stereo not given)

>  <cytotoxicity at 10 µM [%]>
2.24

$$$$
>  <Compound>
CCc1cnc(CN(C)C2CCN(CC3CCC3)C2)o1 (stereo not given)

>  <cytotoxicity at 10 µM [%]>
-5.99

$$$$
>  <Compound>
OC1CCN(CCNc2ncc3c(n2)CCN3c2ccccc2)CC1

>  <cytotoxicity at 10 µM [%]>
5.84

$$$$
>  <Compound>
Cc1cc(CN(C)CCC(O)c2ccccc2)no1 (stereo not given)

>  <cytotoxicity at 10 µM [%]>
0.238

$$$$
>  <Compound>
CN(CC(F)(F)F)C(=O)CNC(=O)Cc1ccccc1O

>  <cytotoxicity at 10 µM [%]>
6.31

$$$$
